# credit: the supplement of paper PMC10883282

Measured relative viability, listed per entry.
Tested on: RD-ES
Assay overview: relative viability vs DMSO control (72 h) (fraction); higher = more viable cells
Settings: 1.111 µM
Please give the numeric answer without any surrounding text.

COc1cc2nccc(Oc3ccc(NC(=O)C4(C(=O)Nc5ccc(F)cc5)CC4)cc3)c2cc1OC [Cabozantinib]: 0.857
Cc1cn(-c2cc(NC(=O)c3ccc(C)c(Nc4nccc(-c5cnccn5)n4)c3)cc(C(F)(F)F)c2)cn1 [Radotinib]: 1

Let us move to another entry and its relative viability.
Could you tell me which relative viability is on file for Cc1c(F)cc(C(=O)NC2CC2)cc1-c1ccc(C(=O)NCC(C)(C)C)cn1 [Losmapimod] ?
0.879

###

Tested on: HS729
Assay overview: relative viability vs DMSO control (72 h) (fraction); higher = more viable cells
Settings: 0.00017 µM
Reported endpoint: relative viability
Please give the numeric answer without any surrounding text.

Cc1ccc(NC(=O)c2ccc(CN3CCN(C)CC3)cc2)cc1Nc1nccc(-c2cccnc2)n1 [Imatinib]: 0.972
C[C@@H](Oc1cc(-c2cnn(C3CCNCC3)c2)cnc1N)c1c(Cl)ccc(F)c1Cl [Crizotinib]: 0.998
CN1CCN(CCOc2cc(OC3CCOCC3)c3c(Nc4c(Cl)ccc5c4OCO5)ncnc3c2)CC1 [Saracatinib]: 1

Let us move to another entry and its relative viability.
Could you tell me which relative viability is on file for N#CCC1(n2cc(-c3ncnc4[nH]ccc34)cn2)CN(C2CCN(C(=O)c3ccnc(C(F)(F)F)c3F)CC2)C1 [Itacitinib] ?
1

###

System: MES-SA
Assay overview: relative viability vs DMSO control (72 h) (fraction); higher = more viable cells
Settings: 0.00457 µM
Reported endpoint: relative viability
Please give the numeric answer without any surrounding text.

Previously resolved entries follow.
COc1cc2nccc(Oc3ccc(NC(=O)C4(C(=O)Nc5ccc(F)cc5)CC4)cc3)c2cc1OC [Cabozantinib]: 0.948
N#CCC1(n2cc(-c3ncnc4[nH]ccc34)cn2)CN(C2CCN(C(=O)c3ccnc(C(F)(F)F)c3F)CC2)C1: 0.908
CNC(=O)c1cc(Oc2ccc(NC(=O)Nc3ccc(Cl)c(C(F)(F)F)c3)cc2)ccn1: 0.934

Could you tell me which relative viability is on file for CCCCCCCCCCCCCCCCCCOP(=O)([O-])OC1CC[N+](C)(C)CC1 ?
0.974

Let us now turn to CCN(CCCOc1ccc2c(Nc3cc(CC(=O)Nc4cccc(F)c4)[nH]n3)ncnc2c1)CCOP(=O)(O)O
0.892

Let us now turn to CN1CCN(CCOc2cc(OC3CCOCC3)c3c(Nc4c(Cl)ccc5c4OCO5)ncnc3c2)CC1
0.94

###

Tested on: SW982
Assay overview: relative viability vs DMSO control (72 h) (fraction); higher = more viable cells
Settings: 0.01372 µM
Reported endpoint: relative viability
Please give the numeric answer without any surrounding text.

Cc1cn(-c2cc(NC(=O)c3ccc(C)c(Nc4nccc(-c5cccnc5)n4)c3)cc(C(F)(F)F)c2)cn1: 0.988
Cc1ccc(NC(=O)c2ccc(CN3CCN(C)CC3)cc2)cc1Nc1nccc(-c2cccnc2)n1: 0.97

Let us move to another entry and its relative viability.
Could you tell me which relative viability is on file for Cc1cn(-c2cc(NC(=O)c3ccc(C)c(Nc4nccc(-c5cnccn5)n4)c3)cc(C(F)(F)F)c2)cn1 ?
1.07
